Just for reference, patent US20230399394A1 is where these values come from.

Molecular target: T1, Human IL-33-his (human, UniProt O95760 112-270, biotinylated with EZ-Link NHS-Biotin where used as IL-33-his-biotin)
T1 construct: Used plain (SPR, cell assays) and biotinylated (ELISA); also called IL-33-his-biotin
T1 sequence: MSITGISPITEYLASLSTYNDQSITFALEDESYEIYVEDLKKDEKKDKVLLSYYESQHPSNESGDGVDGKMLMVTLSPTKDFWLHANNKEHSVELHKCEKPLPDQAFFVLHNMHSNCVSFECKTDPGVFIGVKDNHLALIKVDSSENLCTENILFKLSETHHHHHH
Experiment: competition ELISA as Example 10, ST2-Fc on plate; competitor ST2-Fc
quantity: IC50 (nM)
Respond with the bare value in nM.

Supply recorded IC50 for 864F3-Hu5 (antibody, human IgG4 S228P, kappa, V domains shown, Humanized; also called humanized antibody 864F3-Hu5) VH: QVQLQESGPGLVKPSETLSLTCTVSGFSLSKYGVHWIRQPPGKGLEWLGVLRAGGTISYNSALMSRLTISEDISKSQVSLKLSSVTAADTAVYYCARDHYYYSSFGGFASWGQGTLVTVSS VL: DIQMTQSPSSLSASVGDRVTITCLASQTIATWLAWYQQKPGKSPKLLIYAATRLADGVPSRFSGSGSGTDFTLTISSLQPEDFATYYCQQLYNTPYTFGQGTKVEIKR here.
0.473
